Biological target: T1, mouse serum albumin (mouse, UniProt P07724 25-608)
T1 construct: also called MSA
T1 sequence (P07724 25-608 limits assumed): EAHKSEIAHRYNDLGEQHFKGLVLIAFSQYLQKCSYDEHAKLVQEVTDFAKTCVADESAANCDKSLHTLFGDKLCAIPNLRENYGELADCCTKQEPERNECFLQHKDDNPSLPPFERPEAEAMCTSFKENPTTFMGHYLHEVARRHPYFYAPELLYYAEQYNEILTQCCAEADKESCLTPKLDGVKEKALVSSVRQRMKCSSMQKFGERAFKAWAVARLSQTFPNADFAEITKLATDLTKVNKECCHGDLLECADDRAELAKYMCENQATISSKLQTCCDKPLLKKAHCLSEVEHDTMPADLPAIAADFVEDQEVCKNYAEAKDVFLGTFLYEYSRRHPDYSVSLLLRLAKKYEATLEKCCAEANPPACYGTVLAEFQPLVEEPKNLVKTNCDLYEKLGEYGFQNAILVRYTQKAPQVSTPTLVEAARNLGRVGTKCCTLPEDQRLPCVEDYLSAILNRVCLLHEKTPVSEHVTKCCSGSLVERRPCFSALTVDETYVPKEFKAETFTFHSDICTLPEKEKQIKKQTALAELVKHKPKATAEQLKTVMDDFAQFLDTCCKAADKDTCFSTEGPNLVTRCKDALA
Experiment: SPR (Biacore T200), albumin amine-coupled to CM5, Affimer analyte, pH 7.4
measurement type: pKd
Recall that pKd is obtained by taking minus log10 of the concentration measured in molar.

Incoming: Return reported pKd; argument: HSA-36 (designed binder) MIPRGLSEAKPATPEIQEIVDKVKPQLEEKTNETYGKLEAVQYKTQVLAGHYARYWPGSTNYYIKVRAGDNKYMHLKVFNGPWAQKSKVHQADRVLTGYQVDKNKDDELTGFHHHHHH
Outgoing: 6.68

Incoming: Would you kindly repeat that for HSA-41 (designed binder, also called HSA-41 parent; HSA-41 AH parent) MIPRGLSEAKPATPEIQEIVDKVKPQLEEKTNETYGKLEAVQYKTQVLANFFQRRWPGSTNYYIKVRAGDNKYMHLKVFNGPWKFRNTDRGADRVLTGYQVDKNKDDELTGFHHHHHH ?
Outgoing: 7.17

Incoming: Would you kindly repeat that for HSA-20 (designed binder) MIPRGLSEAKPATPEIQEIVDKVKPQLEEKTNETYGKLEAVQYKTQVLAGYWAAKWPGSTNYYIKVRAGDNKYMHLKVFNGPFPNTSYDLQADRVLTGYQVDKNKDDELTGFHHHHHH ?
Outgoing: 6.07

Incoming: Would you kindly repeat that for HSA-18 (designed binder, also called HSA-18 monomer) MIPRGLSEAKPATPEIQEIVDKVKPQLEEKTNETYGKLEAVQYKTQVLADWWQAKWPHSTNYYIKVRAGDNKYMHLKVFNGPYKVHQSSGGADRVLTGYQVDKNKDDELTGFHHHHHH ?
Outgoing: 5.66
